- System under test: human FAAH (Homo sapiens, UniProt O00519)
- Construct: host or cells: COS-7 cells, transient transfection; 13,000 g membrane fraction solubilised in 1% Triton X-100
- Protocol description: Human FAAH biochemical inhibition assay (AMC arachidonoyl amide fluorescence)
- Condition info: Table 1, human FAAH (no asterisk); read-out: Activity (Ki)
Parameter: Ki

COc1c(Br)cc(F)cc1B(O)O; 0.01 to 0.1 µM
OB(O)c1ccc(Cl)c(Cl)c1; 0.01 to 0.1 µM

For the record CC(C)Cc1ccc(B(O)O)cc1 , what value of Ki is listed for human FAAH (Homo sapiens, UniProt O00519)?
0.01 to 0.1 µM

For the record O=C(NCc1ccccc1)c1ccc(B(O)O)cc1 , what value of Ki is listed for human FAAH (Homo sapiens, UniProt O00519)?
< 0.01 µM

###

- System under test: human FAAH (Homo sapiens, UniProt O00519)
- Construct: host or cells: COS-7 cells, transient transfection; 13,000 g membrane fraction solubilised in 1% Triton X-100
- Sequence (O00519 1-579): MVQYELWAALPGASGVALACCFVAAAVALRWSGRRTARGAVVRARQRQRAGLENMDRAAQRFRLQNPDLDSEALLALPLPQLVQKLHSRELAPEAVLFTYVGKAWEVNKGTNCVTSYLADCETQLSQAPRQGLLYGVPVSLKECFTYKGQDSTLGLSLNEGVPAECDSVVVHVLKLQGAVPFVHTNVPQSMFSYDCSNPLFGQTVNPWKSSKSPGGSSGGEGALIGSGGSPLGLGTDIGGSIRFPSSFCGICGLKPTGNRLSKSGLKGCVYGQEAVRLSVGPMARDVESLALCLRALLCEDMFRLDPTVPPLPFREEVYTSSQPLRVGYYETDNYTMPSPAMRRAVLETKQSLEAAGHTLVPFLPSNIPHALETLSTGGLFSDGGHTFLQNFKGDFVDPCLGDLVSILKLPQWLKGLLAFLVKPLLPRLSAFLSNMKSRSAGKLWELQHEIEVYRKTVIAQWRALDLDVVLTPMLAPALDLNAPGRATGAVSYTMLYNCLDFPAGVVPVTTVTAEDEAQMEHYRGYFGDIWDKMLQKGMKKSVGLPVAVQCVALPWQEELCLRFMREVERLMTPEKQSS
- Protocol description: Human FAAH biochemical inhibition assay (AMC arachidonoyl amide fluorescence)
- Condition info: Table 2, human FAAH (no asterisk); read-out: Activity (Ki)
Parameter: Ki

Some solved cases for reference:
COc1cccc(Oc2ccc(B(O)O)cc2)c1; < 10 nM
CC(=O)Oc1ccc(-c2ccc(B(O)O)cc2)cc1; 10 to 100 nM

For the record CCCCB(Oc1cccc2cccnc12)c1ccc(Oc2ccccc2)cc1 , what value of Ki is listed for human FAAH (Homo sapiens, UniProt O00519)?
< 10 nM

For the record COc1cc(Oc2cccc(F)c2)ccc1B(O)O , what value of Ki is listed for human FAAH (Homo sapiens, UniProt O00519)?
< 10 nM

###

- System under test: human FAAH (Homo sapiens, UniProt O00519)
- Construct: host or cells: COS-7 cells, transient transfection; 13,000 g membrane fraction solubilised in 1% Triton X-100
- Protocol description: Human FAAH biochemical inhibition assay (AMC arachidonoyl amide fluorescence)
- Condition info: Table 2, human FAAH (no asterisk); read-out: Activity (Ki)
pKi: −log10 of the molar value.
Parameter: pKi

Some solved cases for reference:
OB(O)c1ccc(OCCOc2ccccc2)cc1; > 8.00
OB(O)c1ccc(OCCc2ccccn2)cc1F; > 8.00

Requested field: pKi. Item: Cc1sc2ccccc2c1B(O)O
< 6.00
